subject-of-test: Phosphatidylinositol 4,5-bisphosphate 3-kinase catalytic subunit gamma isoform (Homo sapiens)
Sequence (P48736 whole entry, canonical isoform): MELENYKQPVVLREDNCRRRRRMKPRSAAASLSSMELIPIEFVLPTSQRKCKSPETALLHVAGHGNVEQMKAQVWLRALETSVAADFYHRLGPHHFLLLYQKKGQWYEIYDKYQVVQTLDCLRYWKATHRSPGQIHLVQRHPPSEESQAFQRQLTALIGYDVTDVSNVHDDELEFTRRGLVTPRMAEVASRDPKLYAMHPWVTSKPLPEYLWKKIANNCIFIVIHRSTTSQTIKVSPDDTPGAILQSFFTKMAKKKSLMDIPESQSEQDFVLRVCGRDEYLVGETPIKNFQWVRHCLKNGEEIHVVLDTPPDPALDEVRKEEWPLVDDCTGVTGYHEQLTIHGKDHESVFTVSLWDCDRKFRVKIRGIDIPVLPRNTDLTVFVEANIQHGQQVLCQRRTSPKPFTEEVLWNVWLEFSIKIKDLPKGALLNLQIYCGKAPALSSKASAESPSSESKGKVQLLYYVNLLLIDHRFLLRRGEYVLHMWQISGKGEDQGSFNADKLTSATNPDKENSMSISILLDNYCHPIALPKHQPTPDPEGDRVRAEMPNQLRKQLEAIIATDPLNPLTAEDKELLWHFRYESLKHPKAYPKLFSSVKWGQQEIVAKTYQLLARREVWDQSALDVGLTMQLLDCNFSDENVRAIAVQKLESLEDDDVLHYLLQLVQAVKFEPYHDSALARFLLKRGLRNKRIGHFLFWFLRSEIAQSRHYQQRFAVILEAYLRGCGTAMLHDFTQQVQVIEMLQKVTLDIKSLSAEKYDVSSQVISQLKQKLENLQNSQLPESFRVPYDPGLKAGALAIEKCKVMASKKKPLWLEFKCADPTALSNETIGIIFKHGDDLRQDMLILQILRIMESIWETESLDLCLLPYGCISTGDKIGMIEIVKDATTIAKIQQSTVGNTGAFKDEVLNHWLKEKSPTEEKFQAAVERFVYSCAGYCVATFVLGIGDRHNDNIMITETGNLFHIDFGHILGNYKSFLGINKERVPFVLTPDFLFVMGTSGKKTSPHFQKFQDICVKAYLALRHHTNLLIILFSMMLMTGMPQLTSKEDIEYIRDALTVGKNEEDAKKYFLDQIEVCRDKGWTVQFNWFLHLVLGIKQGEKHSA
method-summary: Inhibition of PI3Kgamma in human THP-1 cells assessed as reduction in Akt phosphorylation at S473 residue incubated for 60 mins measured after 120 mins by alphalisa assay
Assay type: cell-based
I'd appreciate it if you could supply pIC50 values for the items below.
Please report pIC50 as the negative decimal logarithm of the molar concentration, giving only the number.

Measured pIC50 of Cc1cc(-c2cnc3[nH]cc(-c4ccncc4)c3c2)cc2c1C(=O)N([C@@H](C)c1ccc(F)cc1)C2 : 5.68

// recorded pIC50 for C[C@@H](C1CC1)N1Cc2cc(-c3cnc4[nH]cc(-c5cnn(C)c5)c4c3)cc(C(F)(F)F)c2C1=O : 7.05

Consider Cc1cc(-c2cnc3[nH]cc(-c4cccnc4)c3c2)cc2c1C(=O)N(C(C)C1CC1)C2 (racemic) . Its measured pIC50 is 6.40

get_value(item= Cc1cc(-c2cnc3[nH]cc(-c4ccc(C5(C(=O)O)CC5)cc4)c3c2)cc2c1C(=O)N([C@@H](C)C1CC1)C2 , readout=pIC50) returns 6.82

Given item Cc1cc(-c2cnc3[nH]cc(-c4ccncc4)c3c2)cc2c1C(=O)N(CC(F)(F)F)C2 , the value recorded as its pIC50 is 5.80

// Cc1cc(-c2cnc3[nH]cc(-c4ccncc4)c3c2)cc2c1C(=O)N(C(C)(C)C1CC1)C2 : pIC50 value = 5.96

Field pIC50 (entry Cc1cc(-c2cnc3[nH]cc(-c4ccc(CC(=O)O)cc4)c3c2)cc2c1C(=O)N([C@@H](C)C1CC1)C2 ) reads 6.80

For this molecule ( Cc1cc(-c2cnc3[nH]cc(-c4cccc(C(=O)O)c4)c3c2)cc2c1C(=O)N([C@@H](C)C1CC1)C2 ), measured pIC50 is 6.96

According to the records, this molecule COc1cc(-c2c[nH]c3ncc(-c4cc(C)c5c(c4)CN([C@@H](C)C4CC4)C5=O)cc23)ccc1C(=O)O displays pIC50 of 6.77

Reported pIC50 for CNC(=O)c1cc(-c2cnc3[nH]cc(-c4cnn(C)c4)c3c2)cc2c1C(=O)N([C@@H](C)C1CC1)C2 was 6.14

Entry CC(=O)Nc1cc(-c2cnc3[nH]cc(-c4cnn(C)c4)c3c2)cc2c1C(=O)N([C@@H](C)C1CC1)C2 — recorded pIC50 = 6.30

----------
Species: Homo sapiens
method-summary: Selectivity index, ratio of inhibition for PI3Kdelta (unknown origin) to inhibition for PI3K p120 gamma (unknown origin) using phosphatidylinositol 4,5-bisphosphate as substrate in presence of ATP incubated for 60 mins by ADP-Glo assay
Task for the reader: assign each of the following compounds its reported Selectivity ratio.
I'd appreciate a reply containing only the number, no unit.

// sample Cc1cc(-c2cnc3[nH]cc(-c4ccc(C(=O)O)c(C(F)(F)F)c4)c3c2)cc2c1C(=O)N([C@@H](C)C1CC1)C2 , its Selectivity ratio was 591

Quick note, Selectivity ratio for Cc1cc(-c2c[nH]c3ncc(-c4cc5c(c(C(F)(F)F)c4)C(=O)N([C@@H](C)C4CC4)C5)cc23)cc(C)c1C(=O)O landed at 84

----------
subject-of-test: Phosphatidylinositol 4,5-bisphosphate 3-kinase catalytic subunit gamma isoform (Homo sapiens)
method-summary: Inhibition of PI3K p120gamma (unknown origin) using phosphatidylinositol 4,5-bisphosphate as substrate in presence of ATP incubated for 60 mins by ADP-Glo assay
assay-metric: IC50

# compound Cc1cc(-c2cnc3[nH]cc(-c4ccc(C(N)=O)cc4)c3c2)cc2c1C(=O)N([C@@H](C)C1CC1)C2 ; its IC50 = 2.59 nM

Looking up Cc1cc(-c2cnc3[nH]cc(C(=O)Nc4ccncc4)c3c2)cc2c1C(=O)N([C@@H](C)C1CC1)C2 , I found its IC50 recorded as 12 nM

# IC50 of C[C@@H](C1CC1)N1Cc2cc(-c3cnc4[nH]cc(-c5cnn(C)c5)c4c3)cc(S(C)(=O)=O)c2C1=O = 1.5 nM

Lab note: C[C@@H](C1CC1)N1Cc2cc(-c3cnc4[nH]cc(-c5cnn(C)c5)c4c3)cc(S(=O)(=O)N(C)C)c2C1=O gave IC50 of 2.6 nM
